Recorded values, source patent US20240024273A1.

TEST NAME: Phase 1 clinical study: plasma pharmacokinetics of prodrug and ibuprofen
Type: in vivo, human
EXPERIMENTAL SETUP: human, plasma, topical or ocular, 35 mg, Day 1; 35 mg topical; read-out: prodrug Tmax, median (range)
ENDPOINT LABEL: Tmax
Numeric answer plus unit only.

Consider the molecule shown here: CCN(CC)CCOC(=O)C(C)c1ccc(CC(C)C)cc1 (stereo not shown) What is its recorded Tmax?
11 h

----------
TEST NAME: Phase 1 clinical study: plasma pharmacokinetics of prodrug and ibuprofen
Format: in vivo, human
EXPERIMENTAL SETUP: human, plasma, topical or ocular, 280 mg, Day 12; 280 mg b.i.d. topical; read-out: prodrug Cmax
ENDPOINT LABEL: Cmax (ng/mL)
// return numeric value only (unit: ng/mL, not printed)

Consider the molecule shown here: CCN(CC)CCOC(=O)C(C)c1ccc(CC(C)C)cc1 (stereo not shown) What is its recorded Cmax?
0.505

----------
TEST NAME: Phase 1 clinical study: plasma pharmacokinetics of prodrug and ibuprofen
Assay type: in vivo, human
EXPERIMENTAL SETUP: human, plasma, topical, 70 mg, Day 1; 70 mg spray; read-out: prodrug Cmax, geometric mean
ENDPOINT LABEL: Cmax

Consider the compound shown here: CCN(CC)CCOC(=O)C(C)c1ccc(CC(C)C)cc1.Cl (stereo not shown) What is its recorded Cmax?
0.102 ng/mL

----------
TEST NAME: 28-day GLP repeated dermal dose toxicity and toxicokinetics study
Parameters: species or system Beagle dogs
EXPERIMENTAL SETUP: beagle, dog, in vivo, topical or ocular, 28-day dermal; read-out: systemic NOAEL (tissues other than the dermal application site)
ENDPOINT LABEL: NOAEL at 28 days (mg/kg/day)
// return numeric value only (unit: mg/kg/day, not printed)

Consider the compound shown here: CCN(CC)CCOC(=O)C(C)c1ccc(CC(C)C)cc1 (stereo not shown) What is its recorded NOAEL at 28 days?
24.8

----------
TEST NAME: 28-day GLP repeated dermal dose toxicity and toxicokinetics study
Design: species or system Rats
EXPERIMENTAL SETUP: male, rat, in vivo, topical; 100 mg/kg/day; males; Day 28
ENDPOINT LABEL: Cmax (ng/mL)
// return numeric value only (unit: ng/mL, not printed)

Consider the compound shown here: CCN(CC)CCOC(=O)C(C)c1ccc(CC(C)C)cc1 (stereo not shown) What is its recorded Cmax?
47400

----------
TEST NAME: 14-day repeated dermal dose toxicity study
Parameters: species or system Beagle dogs
EXPERIMENTAL SETUP: beagle, dog, in vivo, topical or ocular; 14-day dermal
ENDPOINT LABEL: NOAEL at 14 days (mg/kg/day)
// return numeric value only (unit: mg/kg/day, not printed)

Consider the molecule shown here: CCN(CC)CCOC(=O)C(C)c1ccc(CC(C)C)cc1 (stereo not shown) What is its recorded NOAEL at 14 days?
50

----------
TEST NAME: Phase 1 clinical study: plasma pharmacokinetics of prodrug and ibuprofen
Type: in vivo, human
EXPERIMENTAL SETUP: human, plasma, topical or ocular, 280 mg, Day 1; 280 mg topical; read-out: prodrug AUClast
ENDPOINT LABEL: AUC(0-t) (ng·h/mL)
// return numeric value only (unit: ng·h/mL, not printed)

Consider the molecule shown here: CCN(CC)CCOC(=O)C(C)c1ccc(CC(C)C)cc1 (stereo not shown) What is its recorded AUC(0-t)?
4.48
